All values here come from the array DNA melting data of Ke et al..

Test: melting temperature; melt of duplexes
Settings: sodium 0.0675 M; strand 1 µM
parameter: Tm (°C)
Write the value in °C as a bare number.

Would you please look over these solved cases?
CGACGTGCATTATGTGCTG+CAGCACATGGTGCACGTCG (((((((((..((((((((+))))))))..))))))))) = 51.8
CGACGTGCACAATGTGCTG+CAGCACATGCGGCACGTCG ((((((((...((((((((+))))))))...)))))))) = 46.6
CGACGTGCCTCATGTGCTG+CAGCACATTACGCACGTCG ((((((((.(.((((((((+)))))))).).)))))))) = 46.4

Value lookup for Tm; key = CGACGTGCCGCATGTGCTG+CAGCACATCTTGCACGTCG ((((((((...((((((((+))))))))...))))))))
47.4

Value lookup for Tm; key = CGACGTGCCCCATGTGCTG+CAGCACATTTTGCACGTCG ((((((((...((((((((+))))))))...))))))))
46.6

Value lookup for Tm; key = CGACGTGCTCTATGTGCTG+CAGCACATAGAGCACGTCG (((((((((((((((((((+)))))))))))))))))))
63

Value lookup for Tm; key = CGACGTGCTTAATGTGCTG+CAGCACATTTGGCACGTCG ((((((((..(((((((((+)))))))))..))))))))
53.4

Value lookup for Tm; key = CGACGTGCCGCATGTGCTG+CAGCACATTCAGCACGTCG ((((((((.(.((((((((+)))))))).).))))))))
48.9

###

Attribute: Tm
Assay: melting temperature; melt of duplexes
Settings: sodium 0.0675 M; strand 1 µM
Write the value in °C as a bare number.

Would you please look over these solved cases?
CGACGTGCTGCATGTGCTG+CAGCACATACCGCACGTCG ((((((((.(.((((((((+)))))))).).)))))))) = 50.7
CGACGTGCCTCATGTGCTG+CAGCACATTCTGCACGTCG ((((((((...((((((((+))))))))...)))))))) = 47.1
CGACGTGCAAGATGTGCTG+CAGCACATTGGGCACGTCG ((((((((...((((((((+))))))))...)))))))) = 51.5
CGACGTGCACGATGTGCTG+CAGCACATACGGCACGTCG ((((((((...((((((((+))))))))...)))))))) = 48.2
CGACGTGCGATATGTGCTG+CAGCACATGGGGCACGTCG ((((((((...((((((((+))))))))...)))))))) = 51.3
CGACGTGCCTTATGTGCTG+CAGCACATGCCGCACGTCG ((((((((...((((((((+))))))))...)))))))) = 46.9

Now for the substance whose Tm we want.
Value lookup for Tm; key = CGACGTGCCCCATGTGCTG+CAGCACATTAGGCACGTCG (((((((((..((((((((+))))))))..)))))))))
52.5

###

Experiment: melting temperature; melt of duplexes
Settings: sodium 0.0675 M; strand 1 µM
Attribute: Tm
Write the value in °C as a bare number.

Would you please look over these solved cases?
CGACGTGCTCTATGTGCTG+CAGCACATCTAGCACGTCG (((((((((..((((((((+))))))))..))))))))) = 50.6
CGACGTGCAGTATGTGCTG+CAGCACATTGTGCACGTCG (((((((((..((((((((+))))))))..))))))))) = 48.6
CGACGTGCTATATGTGCTG+CAGCACATGCCGCACGTCG ((((((((...((((((((+))))))))...)))))))) = 48.9
CGACGTGCTTTATGTGCTG+CAGCACATTCAGCACGTCG (((((((((..((((((((+))))))))..))))))))) = 50.5
CGACGTGCTTTATGTGCTG+CAGCACATGTGGCACGTCG ((((((((...((((((((+))))))))...)))))))) = 49.6
CGACGTGCGACATGTGCTG+CAGCACATACTGCACGTCG ((((((((...((((((((+))))))))...)))))))) = 49.9
CGACGTGCAACATGTGCTG+CAGCACATACTGCACGTCG (((((((((..((((((((+))))))))..))))))))) = 49.8
CGACGTGCGTCATGTGCTG+CAGCACATTCAGCACGTCG ((((((((...((((((((+))))))))...)))))))) = 51.3

Now for the substance whose Tm we want.
Value lookup for Tm; key = CGACGTGCGCCATGTGCTG+CAGCACATCGGGCACGTCG ((((((((.(.((((((((+)))))))).).))))))))
51.2
